This collection of values is drawn from patent US20120309739A1.

study target: UniProt P31751
Sequence (P31751 whole entry): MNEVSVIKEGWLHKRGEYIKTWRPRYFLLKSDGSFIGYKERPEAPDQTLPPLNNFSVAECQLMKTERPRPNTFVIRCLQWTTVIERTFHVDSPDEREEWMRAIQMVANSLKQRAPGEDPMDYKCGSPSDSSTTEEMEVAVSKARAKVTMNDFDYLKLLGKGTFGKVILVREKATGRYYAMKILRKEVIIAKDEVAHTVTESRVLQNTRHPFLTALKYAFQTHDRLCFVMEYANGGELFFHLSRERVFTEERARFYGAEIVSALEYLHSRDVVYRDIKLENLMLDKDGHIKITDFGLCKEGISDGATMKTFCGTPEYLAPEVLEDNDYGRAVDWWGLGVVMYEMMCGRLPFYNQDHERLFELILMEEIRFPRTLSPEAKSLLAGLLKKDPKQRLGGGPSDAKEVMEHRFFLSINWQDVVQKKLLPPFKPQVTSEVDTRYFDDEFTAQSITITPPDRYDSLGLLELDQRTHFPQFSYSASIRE
assay notes: AKT Kinase Assay (IMAP fluorescent polarisation) vs AKT2
condition context: activated AKT2, FAM Crosstide substrate
Structures can show the parent of a compound that is named as a salt.
test readout: IC50

Below, each entry is followed by its recorded IC50 result.
[[record]]
compound = "NC1(c2ccc(-c3oc4ncc(Cl)nc4c3-c3ccccc3)cc2)CCC1"
assay_value = "1 to 10 µM"

[[record]]
compound = "Cn1cc(-c2cnc3oc(-c4ccc(C5(N)CCC5)cc4)c(-c4ccccc4)c3n2)cn1"
assay_value = "1 to 10 µM"

[[record]]
compound = "NC1(c2ccc(-c3oc4ccccc4c(=O)c3-c3ccccc3)cc2)CCC1"
assay_value = "1 to 10 µM"

[[record]]
compound = "NC1(c2ccc(-c3oc4ncc(-c5ccccc5)nc4c3-c3ccccc3)cc2)CCC1 [Example 139, HCl]"
assay_value = "1 to 10 µM"

[[record]]
compound = "NC1(c2ccc(-c3oc4ncc(N5CCOCC5)cc4c3-c3ccccc3)cc2)CCC1"
assay_value = "1 to 10 µM"


// C#Cc1cnc2oc(-c3ccc(C4(N)CCC4)cc3)c(-c3ccccc3)c2n1 : IC50 value = 1 to 10 µM

Per the record, NC1(c2ccc(-c3oc4ncc(-c5cccnc5)nc4c3-c3ccccc3)cc2)CCC1 has IC50 of 0.1 to 1 µM

Kindly note the recorded IC50 for NC1(c2ccc(-c3oc4nc(NCCO)nc(NCCO)c4c3-c3ccccc3)cc2)CCC1 , which is 0.1 to 1 µM
